tested on: SF-295 CNS; assay: NCI tumour cell line growth inhibition, 48 h

[
  {
    "Line Notation": "CCCc1cc(=O)n2c(C(=O)Nc3ccccc3OC)c(C(=O)Nc3ccc(F)cc3)sc2n1",
    "TGI": "61.7 µM"
  },
  {
    "Line Notation": "COc1ccc(C(=O)/C=C/c2cccnc2)cc1OC",
    "TGI": "26.3 µM"
  },
  {
    "Line Notation": "FC(F)(F)c1ccc(-c2cnc(Cl)nc2NCc2cc(C(F)(F)F)cc(C(F)(F)F)c2)cc1",
    "TGI": "> 100 µM"
  },
  {
    "Line Notation": "O=c1oc2c(ccc3ccccc32)cc1C1=CSC2=NCCN12",
    "TGI": "> 100 µM"
  },
  {
    "Line Notation": "c1ccc(CSc2nnc3c4ccccc4c4ccccc4c3n2)cc1",
    "TGI": "62.3 µM"
  },
  {
    "Line Notation": "COc1cccc2c1C(=O)c1ccc3cc(CCl)cc(O)c3c1C2=O",
    "TGI": "2.23 µM"
  },
  {
    "Line Notation": "CCCCOCCOC1=CC(=O)c2c(O)ccc(O)c2C1=O",
    "TGI": "3.02 µM"
  },
  {
    "Line Notation": "Cc1ccc2c(c1)C(=O)c1c-2n(CCCBr)c(=O)c2cc([N+](=O)[O-])ccc12",
    "TGI": "> 100 µM"
  },
  {
    "Line Notation": "O=C(N/N=C/c1cc([N+](=O)[O-])ccc1O)c1cccc2ccccc12",
    "TGI": "20.9 µM"
  },
  {
    "Line Notation": "CSC1(SC2=NCCN2)SC2(NCCN2)S1",
    "TGI": "67.6 µM"
  },
  {
    "Line Notation": "O=c1oc(-c2ccccc2)c(-c2ccccc2)n1-c1ccc(Br)cc1",
    "TGI": "> 100 µM"
  }
]

Value source: PubChem BioAssay (NCI)
